# measurementTarget: BRAF G466V (Homo sapiens, UniProt P15056, G466V)
# Construct: expressed in transfected cells
# Sequence (P15056 whole entry G466V): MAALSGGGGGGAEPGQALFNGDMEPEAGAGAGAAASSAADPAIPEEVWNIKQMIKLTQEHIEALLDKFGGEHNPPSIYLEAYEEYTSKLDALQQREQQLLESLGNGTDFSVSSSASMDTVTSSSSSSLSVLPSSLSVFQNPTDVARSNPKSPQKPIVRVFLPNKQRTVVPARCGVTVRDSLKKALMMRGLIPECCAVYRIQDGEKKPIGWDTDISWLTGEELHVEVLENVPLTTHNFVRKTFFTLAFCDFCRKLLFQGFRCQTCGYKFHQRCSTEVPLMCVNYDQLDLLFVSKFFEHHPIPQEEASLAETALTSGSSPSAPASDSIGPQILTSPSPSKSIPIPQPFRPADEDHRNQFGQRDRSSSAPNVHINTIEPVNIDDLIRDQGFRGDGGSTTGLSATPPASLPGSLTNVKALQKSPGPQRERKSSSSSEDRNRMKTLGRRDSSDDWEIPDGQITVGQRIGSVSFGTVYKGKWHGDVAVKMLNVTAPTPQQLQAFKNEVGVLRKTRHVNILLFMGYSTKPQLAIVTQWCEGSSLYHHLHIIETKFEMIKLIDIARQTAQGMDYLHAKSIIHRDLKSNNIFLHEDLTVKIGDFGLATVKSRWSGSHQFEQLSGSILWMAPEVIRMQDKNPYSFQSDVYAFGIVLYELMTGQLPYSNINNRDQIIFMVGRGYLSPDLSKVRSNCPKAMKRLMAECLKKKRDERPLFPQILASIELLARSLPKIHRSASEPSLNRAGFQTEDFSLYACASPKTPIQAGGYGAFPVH
# experimentDescription: Cellular assay of target protein degradation, T-Rex 293 cells stably transfected with HA-BRAF G466V (HA immunofluorescence, high content imaging)
# Format: cell-based
# conditionSet: half maximal degradation, T-Rex 293 HA-BRAF G466V; read-out: BRaf G466V DC50
Kindly state DC50 for each of the entries shown.

Query: Item under review: `C[C@H]1C[C@@H](CN2CCC(c3ccc4c(c3)CN([C@H]3CCC(=O)NC3=O)C4=O)CC2)CCN1c1ccc(-c2cnc3[nH]cc(C(=O)c4c(F)ccc(NS(=O)(=O)N5CC[C@@H](F)C5)c4F)c3c2)cc1` . Reported DC50?
Reply: 1 to 10 nM

Query: Now this one: O=C1CCC(N2Cc3cc(N4CC(CN5CCC(c6ccc(-c7cnc8[nH]cc(C(=O)c9c(F)ccc(NS(=O)(=O)N%10CC[C@@H](F)C%10)c9F)c8c7)cc6)CC5)C4)ccc3C2=O)C(=O)N1 (stereo partly drawn)
Reply: 1 to 10 nM

Query: Try COc1cc(C2CCN(CC3CCN(c4ncc(-c5cnc6[nH]cc(C(=O)c7c(F)ccc(NS(=O)(=O)N8CC[C@@H](F)C8)c7F)c6c5)cn4)CC3)CC2)cc2c1C(=O)N(C1CCC(=O)NC1=O)C2 (stereo partly drawn) next.
Reply: < 1 nM

----------
# measurementTarget: BRAF G466V (Homo sapiens, UniProt P15056, G466V)
# Construct: expressed in transfected cells
# experimentDescription: Cellular assay of target protein degradation, T-Rex 293 cells stably transfected with HA-BRAF G466V (HA immunofluorescence, high content imaging)
# Format: cell-based
# conditionSet: half maximal degradation, T-Rex 293 HA-BRAF G466V; read-out: BRaf G466V DC50
Please provide measured DC50 for the entries that follow.

Query: Find the recorded DC50 belonging to O=C1CCC(NC(=O)N2CCCc3c(N4CCN(CC5CCN(c6ccc(-c7cnc8[nH]cc(C(=O)c9c(F)ccc(NS(=O)(=O)N%10CC[C@@H](F)C%10)c9F)c8c7)cc6)CC5)CC4)ccnc32)C(=O)N1 (stereo partly drawn) [Compound 370] and report it.
Reply: 1 to 10 nM

Query: Now the compound O=C1CCC(N2Cc3cc(N4CC(CN5CCN(Cc6ccc(-c7cnc8[nH]cc(C(=O)c9c(F)ccc(NS(=O)(=O)N%10CC[C@@H](F)C%10)c9F)c8c7)cc6)CC5)C4)ccc3C2=O)C(=O)N1 (stereo partly drawn) [Compound 192]
Reply: 1 to 10 nM

Query: # iterate: Nc1ccc(F)c(C(=O)c2c[nH]c3ncc(-c4ccc(N5CCC(CN6CCC(c7ccc8c(c7)CN([C@H]7CCC(=O)NC7=O)C8=O)CC6)CC5)cc4)cc23)c1F [Compound 254]
Reply: < 1 nM

----------
Could you please report measured DC50 for the items listed next?
# measurementTarget: BRAF V600E (Homo sapiens, UniProt P15056, V600E)
# Construct: expressed in transfected cells
# Sequence (P15056 whole entry V600E): as the sequence (P15056 whole entry G466V) above, with V466G, V600E counted along it
# experimentDescription: Cellular assay of target protein degradation, T-Rex 293 cells stably transfected with HA-BRAF_V600E (HA immunofluorescence, high content imaging)
# Format: cell-based
# conditionSet: half maximal degradation, T-Rex 293 HA-BRAF V600E; read-out: BRaf V600E DC50

Query: Requested read-out DC50, target or system BRAF V600E (Homo sapiens, UniProt P15056, V600E), entry CNc1cc(-c2cnc3[nH]cc(C(=O)c4c(F)ccc(NS(=O)(=O)N5CC[C@@H](F)C5)c4F)c3c2)ccc1N1CCC(CN2CCC(c3ccc4c(c3)CN(C3CCC(=O)NC3=O)C4=O)CC2)CC1 (some centres unmarked)
Reply: 5 to 50 nM

Query: Then this molecule: `COc1cc([C@@H](O)CCN2CCN(c3ccc(-c4cnc5[nH]cc(C(=O)c6c(F)ccc(NS(=O)(=O)N7CC[C@@H](F)C7)c6F)c5c4)cc3)CC2)cc2c1C(=O)N([C@@H]1CCC(=O)NC1=O)C2`
Reply: 50 to 500 nM

Query: // same read-out, input: `O=C1CC[C@H](N2Cc3cc([C@@H](O)CCN4CCN(c5ccc(-c6cnc7[nH]cc(C(=O)c8c(F)ccc(NS(=O)(=O)N9CC[C@@H](F)C9)c8F)c7c6)cc5)CC4)c(F)cc3C2=O)C(=O)N1`
Reply: 50 to 500 nM

Query: Same lookup for O=C1CCC(N2Cc3cc(N4CC5(CN(CC#Cc6ccc(-c7cnc8[nH]cc(C(=O)c9c(F)ccc(NS(=O)(=O)N%10CC[C@@H](F)C%10)c9F)c8c7)cc6)C5)C4)ccc3C2=O)C(=O)N1 (some centres unmarked) , please.
Reply: 5 to 50 nM

Query: Ok, now O=C1CCC(N2Cc3cc(N4CCC(CN5CC[C@H]6[C@@H](C5)CN6c5ccc(-c6cnc7[nH]cc(C(=O)c8c(F)ccc(NS(=O)(=O)N9CC[C@@H](F)C9)c8F)c7c6)cc5)CC4)ccc3C2=O)C(=O)N1 (some centres unmarked)
Reply: 5 to 50 nM
